- Test system: DLD-1 colon
- Assay Method Text: NCI tumour cell line growth inhibition, 48 h
Please go through the items and note down their TGI.

Hello, I would appreciate it if you could give TGI for each entry below.
1. O=C(O)CCC(=O)OCN1C(=O)C2C3C=CC(C2C1=O)C1C2C(=O)N(COC(=O)CCC(=O)O)C(=O)C2C31 (stereo not given)
2. CC(C(=O)OCc1ccccc1)N(Cc1ccccc1)Cc1ccccc1 (stereo not given)
3. CCOC(=O)NC(=O)c1cn(CCN2CCN(C(=O)CNC(=O)CNC(=O)Cn3cc(C(=O)NC(=O)OCC)c(=O)[nH]c3=O)CC2)c(=O)[nH]c1=O
4. C#CC[C@@]12CC(=O)C[C@@H]1CCC1(C2)OCCO1 (tested in a mixture with another compound)
5. CCO/C=C1\N=C(c2ccc(Cl)c(Cl)c2)OC1=O
6. COc1cc(CNc2nc3c(N)cc(C(F)(F)F)cc3nc2-c2ccccc2)cc(OC)c1OC

> 100 µM
> 100 µM
> 100 µM
> 100 µM
> 100 µM
> 100 µM

Hello, I would appreciate it if you could give TGI for each entry below.
1. C=CCn1c(=S)sc2c(C(=O)OCC)c3c(C)cc(C)cn3c2c1=O
2. Cc1cc(N(CCC#N)S(=O)(=O)c2ccccc2)ccc1/C=C1\N=C(c2ccc(Cl)cc2)OC1=O
3. CCOC(=O)N1C/C(=C\c2ccccc2)C(=O)/C(=C/c2ccccc2)C1
4. COC1C(OC(=O)c2ccc(C)[nH]2)C(O)C(Oc2ccc3c(O)c(NC(=O)c4c[nH]c(C(=O)Nc5c(O)c6ccc(OC7OC(C)(C)C(OC)C(OC(=O)c8ccc(C)[nH]8)C7O)c(C)c6oc5=O)c4C)c(=O)oc3c2C)OC1(C)C (stereo not given)

1. > 100 µM
2. > 100 µM
3. 7.25 µM
4. 6.08 µM

----------
- Test system: HOP-92 NSCLC
- Assay Method Text: NCI tumour cell line growth inhibition, 48 h
Value Kind: TGI (µM)
One number for each entry, in µM.

{"Compound": "O=C(CCN1CCOCC1)/C(=C/c1ccccc1)c1ccccc1", "Value Kind": "TGI", "Unit Name": "µM", "Endpoint Result": 13}
{"Compound": "CCCCCCCCCCCC1=NC(C)(C)CN1C(C)(C)CO", "Value Kind": "TGI", "Unit Name": "µM", "Endpoint Result": 7.49}
{"Compound": "O=C(COc1ccc(OCC(=O)N2C(=O)CC(=O)N(c3ccc(Cl)cc3)C2=S)cc1)N1C(=O)CC(=O)N(c2ccc(Cl)cc2)C1=S", "Value Kind": "TGI", "Unit Name": "µM", "Endpoint Result": 70.4}
{"Compound": "CC(C)(C)c1ccc(C(O)CCCN2CCC(C(O)(c3ccccc3)c3ccccc3)CC2)cc1 (stereo not given)", "Value Kind": "TGI", "Unit Name": "µM", "Endpoint Result": 2.6}

Hello, I would appreciate it if you could give TGI for each entry below.
1. O=[N+]([O-])/C=C/c1c(Cl)cccc1Cl
2. CN(C)c1ccc(Nc2c3ccccc3nc3ccccc23)cc1
3. Cc1ccc(/C=C/c2c(C(=O)/C=C/c3ccccc3)c(C)nc3ccccc23)cc1
4. COc1ccccc1OCC(COC(=O)Nc1ccccc1)OC(=O)Nc1ccccc1 (stereo not given)
5. COc1cc(/C=C/c2ccc(C)cc2)cc(OC)c1OC
6. FC(F)(F)c1cc(N(C2c3ccccc3C=Cc3ccccc32)P(Cl)Cl)cc(C(F)(F)F)c1
7. COC(=O)c1cc(-c2ccccc2)[nH]c1N/N=C/c1c(Cl)cccc1Cl

[12.2, 3.84, 4.34, 28.7, 25.5, 30.4, 17.5]
